Property: pIC50; scope: individual compounds
assay: Inhibition of advanced glycation end product formation after 14 day in phosphate buffer at pH7.4 by spectrofluorimetry; assay type: physicochemical
pIC50: −log10 of the molar value.

Worked examples, 5 compounds total:
C[C@@]12C[C@@]3(O)O[C@@H](O1)[C@]1(COC(=O)c4ccccc4)[C@@H]3C[C@]12O[C@@H]1O[C@H](COC(=O)c2cc(O)c(O)c(O)c2)[C@@H](O)[C@H](O)[C@H]1O	4.95
N=C(N)NN	2.99
CO[C@@]12C[C@@H]3C(=O)[C@@](C)(C1)OC(O2)[C@H]3COC(=O)c1ccccc1	< 3.30
C[C@@]12C[C@@]3(O)O[C@@H](O1)[C@]1(COC(=O)c4ccc(O)cc4)[C@H]3C[C@@]12O[C@@H]1O[C@H](CO)[C@@H](O)[C@H](O)[C@H]1O	< 3.30
C[C@@]12C[C@@]3(O)O[C@@H](O1)[C@]1(COC(=O)c4ccccc4)[C@H]3C[C@@]12O[C@@H]1O[C@H](CO)[C@@H](O)[C@H](O)[C@H]1O	< 3.30

Please fill in: pIC50 reported for `Cc1cc2c(cc1O)[C@@H](CO)CO2` = 3.75

Please fill in: pIC50 reported for `CCCCO[C@]12C[C@]3(C)OC(O1)[C@]1(COC(=O)c4ccccc4)[C@@H]2C[C@@]31O[C@@H]1O[C@H](CO)[C@@H](O)[C@H](O)[C@H]1O` = 4.97

Please fill in: pIC50 reported for `C[C@@]12C[C@@]3(O)OC(O1)[C@]1(COC(=O)c4ccc(O)cc4)[C@@H]3C[C@@]21O[C@@H]1O[C@H](COC(=O)c2ccccc2)[C@@H](O)[C@H](O)[C@H]1O` = < 3.30

Please fill in: pIC50 reported for `C=C1CC[C@]2(C(=O)O)CC[C@]3(C)C(=CC[C@@H]4[C@@]5(C)CC[C@H](O)[C@@](C)(CO)[C@@H]5CC[C@]43C)[C@@H]2C1` = < 3.30

Please fill in: pIC50 reported for C[C@@]12C[C@@]3(O)OC(O1)[C@]1(COC(=O)c4ccccc4)[C@@H]3C[C@@]21O[C@@H]1O[C@H](COC(=O)c2ccc(O)cc2)[C@@H](O)[C@H](O)[C@H]1O [NUDANPINOSIDE H] = < 3.30

Please fill in: pIC50 reported for COc1ccc(C(C)=O)c(O[C@@H]2O[C@H](CO[C@@H]3OC[C@H](O)[C@H](O)[C@H]3O)[C@@H](O)[C@H](O)[C@H]2O)c1 [PAEONOLIDE] = < 3.30

Please fill in: pIC50 reported for `CO[C@H]1O[C@@]2(C)CC(=O)[C@H]3C[C@]2(O[C@@H]2O[C@H](COC(=O)c4ccccc4)[C@@H](O)[C@H](O)[C@H]2O)[C@]13COC(=O)c1ccccc1` = < 3.30

Please fill in: pIC50 reported for `C[C@@]12C[C@@]3(O)OC(O1)[C@]1(COC(=O)c4ccc(O)cc4)[C@@H]3C[C@@]21O[C@H]1O[C@H](COC(=O)c2ccccc2)[C@@H](O)[C@H](O)[C@H]1O` = < 3.30
